Test: qHTS assay for identifying genotoxic compounds that show differential cytotoxicity against isogenic chicken DT40 cell lines with known DNA damage response pathways - Rad54/Ku70 mutant cell line (AID 743015); also: nearly all actives have a fitted effect of over 60% in size
Conditions: DT40 Rad54/Ku70 mutant viability, CellTiter-Glo, 40 h; series mostly up to 66.8 µM
Inconclusive results are not listed. Active and inactive are the calls of the source. Calls follow the shape of the dose curve; as a rule, active = well fitted cell-killing curve with a large enough effect in the repeat runs; inconclusive = weak or mixed curves; inactive = no such curve, though single readings can be large or run the other way.
Thanks in advance; please answer with one of these: Yes = active, No = inactive

Worked cases, answers included:
> print(dat)
                                chem.smiles  assigned.category
1                       C=CCc1ccc(O)c(OC)c1                 No
2                 CC(O)(P(=O)(O)O)P(=O)(O)O                 No
3                              CC(=O)C(=O)O                 No
4  COc1ccc(OC(F)(F)F)cc1CN[C@H]1CCCN[C@H]1c1ccccc1                Yes
5                            CC(=O)CCC(=O)O                 No
6  CCCCC1(COC(=O)CCC(=O)O)C(=O)N(c2ccccc2)N(c2ccccc2)C1=O                 No

Then this compound:
Ask | What call does the record list for Cc1cc(=O)oc2cc(O)ccc12 ?
Reply | No

* * *

Biological target: Progesterone receptor (Homo sapiens)
Assay: qHTS assay to identify small molecule antagonists of the progesterone receptor (PR) signaling pathway (AID 1346795); also: % is scaled to controls: 0 for no effect and ±100 for the full control effect
Conditions: PR-UAS-bla HEK293T, beta-lactamase FRET ratio, 16 h; series mostly up to 92.4 µM
Results filed as inconclusive are left out. Activity calls are given as the source filed them. Calls come from the whole dose curve; as a rule, active = well fitted inhibition curve with a large enough effect in the signal ratio in the repeat runs (not every such curve was filed as active); inconclusive = weak or mixed curves; inactive = flat fitted curve, though single readings scatter; the % refers to the signal ratio.
Thanks in advance; please answer with one of these: active, inactive

Worked cases, answers included:
> print(dat)
                                   molecule                         target.system  assigned.category
1  CC1(C)S[C@@H]2[C@H](NC(=O)[C@H](N)c3ccccc3)C(=O)N2[C@H]1C(=O)O  Progesterone receptor (Homo sapiens)           inactive
2                              Cc1cccc(C)c1  Progesterone receptor (Homo sapiens)           inactive

Ask | What call does the record list for C=CCc1ccc(O)c(OC)c1 ?
Reply | inactive

Ask | What call does the record list for O=C(O)c1ccccc1 ?
Reply | inactive

Ask | What call does the record list for NS(=O)(=O)c1cc2c(cc1Cl)NCNS2(=O)=O ?
Reply | inactive

Ask | What call does the record list for C/C=C/C=C/C(=O)O ?
Reply | inactive

* * *

Molecular target: Nuclear receptor ROR-gamma (Homo sapiens) (UniProt P51449)
Assay: qHTS assay to identify small molecule antagonists of the retinoid-related orphan receptor gamma (ROR-gamma) signaling pathway (AID 1159521;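 also: CHO cells with doxycycline inducible ROR-gamma driving an RORE luciferase reporter; top concentration of the series differs between compounds; % is scaled to controls: 0 for no effect and ±100 for the full control effect; nearly all actives have a fitted effect of over 50% in size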)
Conditions: Tet-on RORgamma CHO cells, RORE-luciferase, 16 h; series mostly up to 92.4 µM
Inconclusive results are not listed. Activity calls are given as the source filed them. Calls come from the whole dose curve; as a rule, active = well fitted inhibition curve with a large enough effect in the repeat runs; inconclusive = weak or mixed curves, or effect the other way; inactive = no such curve, though single readings can be large or run the other way.
Thanks in advance; please answer with one of these: yes (1) for active, no (0) for inactive

Worked cases, answers included:
> print(dat)
                                   compound  assigned.category
1  O=C1OC2(c3ccccc31)c1cc(Br)c(O)c(Br)c1Oc1c2cc(Br)c(O)c1Br             no (0)
2                                 Oc1ccccc1             no (0)
3              O=C1c2c(O)cccc2Cc2cccc(O)c21             no (0)
4                     CC12CCC(CC1)C(C)(C)O2             no (0)

Then this compound:
Ask | What call does the record list for C=C(C)C(=O)OCC(C)O (stereo not drawn) ?
Reply | no (0)
